From: patent US10517889B2

tested on: human SMAD7 mRNA; experiment: Antisense inhibition of human SMAD7 mRNA expression in Hep3B cells by 3-10-3 cEt gapmers, 10,000 nM, electroporation (Example 2); assay type: cell-based; conditions: Hep3B cells, electroporation with 10,000 nM antisense oligonucleotide, approximately 24 hours, primer probe set RTS5062, relative to untreated control cells
Strand notation (5' to 3'): a small letter for the sugar, then the base; units joined by * are phosphorothioate-linked, units joined directly phosphodiester-linked; [ ] holds rarer units or linkages, { } end groups; capitals alone tell only the bases. k = constrained ethyl (cEt); [5mC] = 5-methylcytosine; d = 2'-deoxy (DNA)
Tag: Criterion met if measured % Inhibition is not below 20%, Criterion not met if it is.

Enquiry: Check if % Inhibition >= 20% (inclusive). Item: 790631 (kG*kT*kT*dT*dA*dA*dT*dG*dG*dA*dA*d[5mC]*dA*kT*kA*kA; antisense) [compound 790631]
Return: Criterion not met

Enquiry: Check if % Inhibition >= 20% (inclusive). Item: 799181 (antisense kG*kT*kT*dA*dG*dA*dA*dA*dA*dA*dT*dA*dG*k[5mC]*kT*kT) [compound 799181]
Return: Criterion met

Enquiry: Check if % Inhibition >= 20% (inclusive). Item: 799208 (kT*kG*kA*dT*dG*d[5mC]*dT*dT*dA*dT*dA*dA*dA*kA*k[5mC]*kG; antisense) [compound 799208]
Return: Criterion not met

Enquiry: Check if % Inhibition >= 20% (inclusive). Item: 799102 (antisense k[5mC]*kG*kG*dG*dA*dA*dA*dA*dA*d[5mC]*d[5mC]*dT*dG*kA*kT*kG) [compound 799102]
Return: Criterion met

Enquiry: Check if % Inhibition >= 20% (inclusive). Item: 799192 (antisense kT*kT*kT*d[5mC]*d[5mC]*dA*dA*dT*dG*dA*dG*dA*dA*kT*kG*k[5mC]) [compound 799192]
Return: Criterion met

Enquiry: Check if % Inhibition >= 20% (inclusive). Item: 798993 (antisense k[5mC]*kA*k[5mC]*dA*d[5mC]*dT*d[5mC]*d[5mC]*dT*dG*dA*d[5mC]*dA*kA*kG*kT) [compound 798993]
Return: Criterion met

Enquiry: Check if % Inhibition >= 20% (inclusive). Item: 798940 (antisense kA*kA*kA*dA*d[5mC]*dG*dA*d[5mC]*d[5mC]*dA*dA*dA*dG*kA*kG*kT) [compound 798940]
Return: Criterion met

Enquiry: Check if % Inhibition >= 20% (inclusive). Item: 772700 (k[5mC]*kT*kT*dT*dA*dA*dT*dA*dA*dA*dT*d[5mC]*dT*k[5mC]*kA*kG; antisense) [compound 772700]
Return: Criterion met

Enquiry: Check if % Inhibition >= 20% (inclusive). Item: 799237 (kA*k[5mC]*kA*dT*dA*dA*dA*d[5mC]*dT*d[5mC]*d[5mC]*dT*dT*kT*kA*kG; antisense) [compound 799237]
Return: Criterion not met

Enquiry: Check if % Inhibition >= 20% (inclusive). Item: 798962 (antisense kT*kT*k[5mC]*d[5mC]*dA*dA*dA*dA*dA*dA*dA*d[5mC]*d[5mC]*k[5mC]*k[5mC]*k[5mC]) [compound 798962]
Return: Criterion not met

Enquiry: Check if % Inhibition >= 20% (inclusive). Item: 799196 (antisense kG*k[5mC]*kA*d[5mC]*dT*dA*d[5mC]*dA*dA*dT*dG*d[5mC]*dT*kA*kA*kA) [compound 799196]
Return: Criterion met

Enquiry: Check if % Inhibition >= 20% (inclusive). Item: 798975 (antisense kT*k[5mC]*k[5mC]*d[5mC]*d[5mC]*dT*d[5mC]*dT*dT*d[5mC]*d[5mC]*dT*dA*kT*k[5mC]*kA) [compound 798975]
Return: Criterion met

Enquiry: Check if % Inhibition >= 20% (inclusive). Item: 799075 (antisense kA*kG*kA*dT*dG*dG*d[5mC]*d[5mC]*dA*dA*dA*dA*dA*kA*kG*kA) [compound 799075]
Return: Criterion not met

====

For each entry below, report its Levels of IL-6 value.
tested on: human peripheral blood mononuclear cells (PBMCs); assay: Human PBMC activation assay, cytokine levels (IL-10, IL-6, MCP-1, TNF-α) in supernatant after 24 hours (Example 9); settings: human PBMC supernatant after 24 hours; 8 μM oligonucleotide
Output spec: scalar in pg/mL, unitless text.

Enquiry: Could you tell me which Levels of IL-6 is on file for 790615 (CCAATGAGAATGCTTC; 3-10-3 cEt gapmer, further chemistry not given here) [compound 790615] ?
Return: 10.0

Enquiry: Could you tell me which Levels of IL-6 is on file for 829994 (GGAGGCAGGGCCGCGA; 3-10-3 cEt gapmer, further chemistry not given here) [compound 829994] ?
Return: 202.5

Enquiry: Could you tell me which Levels of IL-6 is on file for 830025 (antisense TTTGTAAATCGAAAGC; 3-10-3 cEt gapmer, further chemistry not given here) [compound 830025] ?
Return: 17.8

Enquiry: Could you tell me which Levels of IL-6 is on file for 830121 (AGAATCAAGCCCTGGC; 3-10-3 cEt gapmer, further chemistry not given here) [compound 830121] ?
Return: 7.5

====

test system: human SMAD7 mRNA; experiment: Antisense inhibition of human SMAD7 mRNA expression in Hep3B cells by 3-10-3 cEt gapmers, 10,000 nM, electroporation (Example 2); format: cell-based; conditions: Hep3B cells, electroporation with 10,000 nM antisense oligonucleotide, approximately 24 hours, primer probe set RTS5062, relative to untreated control cells
Strand notation (5' to 3'): a small letter for the sugar, then the base; units joined by * are phosphorothioate-linked, units joined directly phosphodiester-linked; [ ] holds rarer units or linkages, { } end groups; capitals alone tell only the bases. k = constrained ethyl (cEt); [5mC] = 5-methylcytosine; d = 2'-deoxy (DNA)
observed_property: % inhibition of SMAD7 mRNA expression (%)
Output spec: scalar in %, unitless text.

Enquiry: Could you tell me which % inhibition of SMAD7 mRNA expression is on file for 790623 (kG*k[5mC]*kA*dT*dT*dT*dA*dT*dA*dT*dT*dA*dA*kA*kG*k[5mC]; antisense) [compound 790623] ?
Return: 0

Enquiry: Could you tell me which % inhibition of SMAD7 mRNA expression is on file for 799152 (antisense kT*kG*kT*d[5mC]*dA*dG*d[5mC]*d[5mC]*dT*dA*dG*dG*dA*kT*kG*kG) [compound 799152] ?
Return: 33

Enquiry: Could you tell me which % inhibition of SMAD7 mRNA expression is on file for 799245 (kG*kT*kA*dT*d[5mC]*dT*dG*dG*dG*d[5mC]*d[5mC]*dA*d[5mC]*kT*kG*kG; antisense) [compound 799245] ?
Return: 18

====

system: human SMAD7 mRNA; experiment: Antisense inhibition of human SMAD7 mRNA expression in Hep3B cells by 5-10-5 MOE gapmers, single concentration, electroporation, RT-PCR (Example 1, Study 1 and 2); assay type: cell-based; settings: electroporation with 15,000 nM antisense oligonucleotide (Study 2), 5-10-5 MOE gapmers targeting SEQ ID NO: 1 and 2
Strand notation (5' to 3'): a small letter for the sugar, then the base; units joined by * are phosphorothioate-linked, units joined directly phosphodiester-linked; [ ] holds rarer units or linkages, { } end groups; capitals alone tell only the bases. e = 2'-O-(2-methoxyethyl) (MOE); [5mC] = 5-methylcytosine; d = 2'-deoxy (DNA)
For each entry below, report its % Inhibition of SMAD7 mRNA value.
Number first, unit second: that is the form wanted.

Enquiry: Could you tell me which % Inhibition of SMAD7 mRNA is on file for 771592 (antisense e[5mC]*eT*eG*e[5mC]*eT*d[5mC]*dA*dG*dA*dA*dG*d[5mC]*d[5mC]*dT*dG*eT*eG*eG*eA*e[5mC]) [compound 771592] ?
Return: 16%

Enquiry: Could you tell me which % Inhibition of SMAD7 mRNA is on file for 771872 (antisense eT*e[5mC]*e[5mC]*e[5mC]*e[5mC]*d[5mC]*dA*d[5mC]*d[5mC]*dG*d[5mC]*dG*d[5mC]*dA*dG*eG*eG*eA*e[5mC]*eA) [compound 771872] ?
Return: 11%

Enquiry: Could you tell me which % Inhibition of SMAD7 mRNA is on file for 483663 (antisense e[5mC]*eA*eG*e[5mC]*e[5mC]*dT*d[5mC]*dT*dT*dG*dA*d[5mC]*dT*dT*d[5mC]*e[5mC]*eG*eA*eG*eG) [compound 483663] ?
Return: 35%

====

system: human SMAD7 mRNA; assay: Antisense inhibition of human SMAD7 mRNA expression in Hep3B cells by 3-10-3 cEt gapmers, 10,000 nM, electroporation (Example 2); assay type: cell-based; conditions: Hep3B cells, electroporation with 10,000 nM antisense oligonucleotide, approximately 24 hours, SMAD7 mRNA by RT-PCR (RTS5062), relative to untreated control cells
Strand notation (5' to 3'): a small letter for the sugar, then the base; units joined by * are phosphorothioate-linked, units joined directly phosphodiester-linked; [ ] holds rarer units or linkages, { } end groups; capitals alone tell only the bases. k = constrained ethyl (cEt); [5mC] = 5-methylcytosine; d = 2'-deoxy (DNA)
Tag: yes if measured % Inhibition is not below 40%, no if it is.

Enquiry: Check if % Inhibition >= 40% (inclusive). Item: 799375 (antisense kG*k[5mC]*k[5mC]*dT*dA*dT*dA*d[5mC]*dT*dT*d[5mC]*dT*dG*kA*kA*kA) [compound 799375]
Return: no

Enquiry: Check if % Inhibition >= 40% (inclusive). Item: 798812 (k[5mC]*kT*k[5mC]*d[5mC]*dA*dG*dA*dA*dG*dA*dA*dG*dT*kT*kG*kG; antisense) [compound 798812]
Return: no

Enquiry: Check if % Inhibition >= 40% (inclusive). Item: 798833 (kT*kA*kG*dA*dT*d[5mC]*dA*dT*dA*dG*dA*dA*dG*kA*kT*kA; antisense) [compound 798833]
Return: yes

Enquiry: Check if % Inhibition >= 40% (inclusive). Item: 799902 (antisense kG*kG*kA*dA*dG*dA*d[5mC]*dA*d[5mC]*dA*dA*dG*dG*kG*k[5mC]*kT) [compound 799902]
Return: no
